pIC50: −log10 of the molar value.
Collected literature values of pIC50 measured for Autotaxin (Homo sapiens, UniProt Q13822).

| molecule | qualifier_symbol | pIC50 |
| --- | --- | --- |
| O=C(COc1ccc(OC(F)(F)F)cc1)N1CC[C@@H]2CN(C(=O)c3ccc4[nH]nnc4c3)C[C@H]2C1 (relative stereo) | = | 6.94 |
| O=C(c1cnc(N[C@@H]2Cc3ccc(Cl)cc3C2)nc1)N1CCC12CCOC2 (stereo partly shown) | > | 7.00 |
| O=C(/C=C/c1cc(Cl)cc(Cl)c1)N1CCC2(CC1)CN(C(=O)c1ccc3[nH]c(=O)oc3c1)C2 | = | 7.66 |
| O=C(OCc1ccc(OC(F)(F)F)cc1)N1CC[C@@H]2CN(C(=O)c3ccc4[nH]nnc4c3)C[C@H]2C1 (relative stereo) | = | 7.89 |
| COc1ncccc1-c1cc(C#N)c(Cl)cc1OCc1n[nH]c(=O)n1C | = | 7.54 |
| O=C(OCc1ccc(F)cc1C(F)(F)F)N1CC[C@@H]2CN(C(=O)c3ccc4[nH]nnc4c3)C[C@H]2C1 (relative stereo) | = | 7.70 |
| COc1c(C(=O)N2C[C@@H]3[C@H]4CN(C(=O)c5ccc6[nH]nnc6c5)C[C@H]4[C@@H]3C2)ccc2ccccc12 | = | 6.81 |
| C[C@H]1CN(Cc2ccccc2)C(=O)c2cc(-c3ccc(Cl)cc3)nn21 | ≤ | 6.00 |
| O=C(/C=C/c1ccccn1)N1CC[C@@H]2CN(C(=O)c3ccc4[nH]nnc4c3)C[C@@H]2CC1 | = | 5.24 |
| O=C(O)CCN1C(=O)C2Cc3c(n(Cc4ccc(F)cc4)c4ncccc34)CN2C1=O (single isomer, unassigned; enta) | > | 6.30 |
| N#Cc1cc(Cl)cc(COC(=O)N2C[C@@H]3CN(C(=O)c4ccc5[nH]nnc5c4)C[C@@H]3C2)c1 | = | 7.25 |
| O=C(c1ccc2[nH]nnc2c1)N1CC2(CCN(c3nnc(-c4ccc(Cl)cc4)o3)CC2)C1 | = | 6.59 |
| Cc1c(Sc2cccc(C(=O)O)c2)c2ccc(Cl)c(F)c2n1CC(=O)N1CCC(c2cnn(C)c2)C1 (stereo not shown) | ≥ | 6.30 |
| CO[C@]12CN(C(=O)CCc3ccc(OC(F)(F)F)cc3)C[C@@H]1CN(C(=O)c1ccc(S(N)(=O)=O)cn1)C2 (relative stereo) | = | 7.77 |
| Cc1c(Sc2cccc(C(=O)O)c2)c2ccc(Cl)c(F)c2n1CCC(=O)N1CCc2ccccc21 | ≥ | 6.30 |
| O=C(OCc1ccc(OC(F)(F)F)cc1)N1C[C@@H]2CN(C(=O)c3ccc(=O)[nH]c3)C[C@H]2C1 | = | 6.36 |
| Cn1c(COc2cc(Cl)c(C#N)cc2-c2cc(OCC(F)(F)F)ccc2F)n[nH]c1=O | = | 8.05 |
| COc1ncccc1-c1cc(Cl)c(C)cc1OCc1n[nH]c2c1CCN(C(C)=O)C2 | = | 7.16 |
| O=C(c1ccc2[nH]nnc2c1)N1CC2(CCN(C(=O)[C@@H]3C[C@H]3c3cc(F)cc(F)c3)CC2)C1 (relative stereo) | = | 5.49 |
| O=C(OCc1cc(Cl)cc(Cl)c1)N1C[C@@H]2CN(C(=O)c3ccc(-c4nnn[nH]4)cc3)C[C@@H]2C1 | = | 6.24 |
| Cc1cc(OCc2n[nH]c3nc(NCCO)ncc23)c(C(C)(C)C)cc1C#N | = | 8.05 |
| O=C(/C=C/c1ccc(F)cc1C(F)(F)F)N1CC[C@@H]2CN(C(=O)c3ccc4[nH]nnc4c3)C[C@@H]2CC1 | = | 7.89 |
| COc1ccc(COC(=O)N2CCc3cc(C(=O)N4CCc5[nH]nnc5C4)nn3CC2)cc1 | = | 7.28 |
